Molecular target: Endothelin receptor type B (Homo sapiens, UniProt P24530)
Sequence (P24530 whole entry): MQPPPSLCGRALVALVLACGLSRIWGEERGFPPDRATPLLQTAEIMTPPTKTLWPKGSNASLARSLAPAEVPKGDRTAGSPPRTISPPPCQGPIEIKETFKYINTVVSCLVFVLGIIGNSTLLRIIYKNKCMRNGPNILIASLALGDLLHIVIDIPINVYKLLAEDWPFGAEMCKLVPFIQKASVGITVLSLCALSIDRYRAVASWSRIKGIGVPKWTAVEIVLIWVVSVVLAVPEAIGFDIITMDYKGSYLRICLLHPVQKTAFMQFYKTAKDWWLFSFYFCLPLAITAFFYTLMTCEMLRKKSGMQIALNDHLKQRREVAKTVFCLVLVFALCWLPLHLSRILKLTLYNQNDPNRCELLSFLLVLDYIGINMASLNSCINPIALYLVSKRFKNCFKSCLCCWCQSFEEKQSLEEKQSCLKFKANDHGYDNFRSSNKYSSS
Assay: Binding affinity towards human Endothelin B receptor by measuring its ability to displace [125I]ET-3 from CHO cells
Format: cell-based
EXPERIMENTAL ENDPOINT: Ki (µM)
Use µM as the unit, but write only the number.

Challenge: Ki lookup needed for COc1cc(OC)nc(OC(C(=O)O)C(OC)(c2ccccc2)c2ccccc2)n1 (stereo unspecified) , thanks.
Response given: 0.371

* * *

Target: Endothelin receptor type B (Homo sapiens)
Assay: Binding affinity towards human Endothelin B receptor by measuring its ability to displace [125I]ET-3 from CHO cells
Type: cell-based
So I've got a bunch of compounds here, and I need their Ki values.

Challenge: Any idea what its Ki is? The compound is COC(=O)C(Oc1nc(OC)cc(OC)n1)C(C)(Oc1ccc(C(C)C)cc1)c1ccccc1 (configuration not stated)
Response given: 3 µM

Challenge: Which Ki is reported for this compound? COC(=O)C(Oc1nc(OC)cc(OC)n1)C(C)(Oc1ccc(SC)cc1)c1ccccc1 (configuration not stated)
Response given: 4.7 µM

* * *

Organism: Oryctolagus cuniculus
Assay: Functional vascular ET-1 antagonism was determined in rabbit aorta rings with intact endothelium
Settings: read-out: pA2 (converted)
Record Condition met whenever Kb is at 0.9 nM or higher; record Condition not met when lower.

Challenge: I'd appreciate it if you could say whether COc1nc(OC(C(=O)O)C(OC)(c2ccccc2)c2ccccc2)nc2c1CCO2 (stereo unspecified) has Kb at least equal to 0.9 nM.
Response given: Condition met

Challenge: Determine whether measured Kb meets or exceeds 0.9 nM for COc1cc(OC)nc(OC(C(=O)O)C(OC)(c2ccccc2)c2ccccc2)n1 (stereo unspecified)
Response given: Condition met

Challenge: Evaluate `CCCOc1ccc2c(c1)[C@@H](c1ccc(OC)cc1OCC(=O)O)[C@H](C(=O)O)[C@H]2c1ccc2c(c1)OCO2` : Kb at minimum 0.9 nM?
Response given: Condition not met

Challenge: Evaluate COc1nc(OC(C(=O)O)C(OC)(c2ccccc2)c2ccccc2)nc2c1CCC2 (stereo unspecified) : Kb at minimum 0.9 nM?
Response given: Condition not met

Challenge: Test whether the molecule `Cc1noc(NS(=O)(=O)c2cccc3c(N(C)C)cccc23)c1C` records Kb of 0.9 nM or higher.
Response given: Condition met

Challenge: Is Kb for `COc1cccc(Oc2c(NS(=O)(=O)c3ccc(C(C)(C)C)cc3)ncnc2OCCO)c1` at or above 0.9 nM?
Response given: Condition met
